Listed next: entries and their corresponding DC50.
Tgt: Cereblon/Casein kinase I alpha (Homo sapiens, UniProt P48729+Q96SW2)
Protocol: PROTAC activity at CRBN/HiBiT-tagged CK1alpha in HEK293 cells transfected with LgBiT expression vector assessed as induction of CK1alpha degradation measured after 24 hrs by luminescence based GloMax Discover assay
Format: cell-based
Sequence (P48729 whole entry): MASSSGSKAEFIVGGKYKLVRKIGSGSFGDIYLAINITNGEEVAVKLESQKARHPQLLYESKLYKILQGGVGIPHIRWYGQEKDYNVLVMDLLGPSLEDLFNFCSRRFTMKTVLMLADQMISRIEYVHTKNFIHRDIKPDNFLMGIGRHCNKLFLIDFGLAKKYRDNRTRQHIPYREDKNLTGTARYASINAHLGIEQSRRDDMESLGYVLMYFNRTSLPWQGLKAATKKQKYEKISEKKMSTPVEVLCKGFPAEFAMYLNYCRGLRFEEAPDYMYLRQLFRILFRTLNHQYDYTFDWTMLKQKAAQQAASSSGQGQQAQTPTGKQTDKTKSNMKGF
Sequence (Q96SW2 whole entry): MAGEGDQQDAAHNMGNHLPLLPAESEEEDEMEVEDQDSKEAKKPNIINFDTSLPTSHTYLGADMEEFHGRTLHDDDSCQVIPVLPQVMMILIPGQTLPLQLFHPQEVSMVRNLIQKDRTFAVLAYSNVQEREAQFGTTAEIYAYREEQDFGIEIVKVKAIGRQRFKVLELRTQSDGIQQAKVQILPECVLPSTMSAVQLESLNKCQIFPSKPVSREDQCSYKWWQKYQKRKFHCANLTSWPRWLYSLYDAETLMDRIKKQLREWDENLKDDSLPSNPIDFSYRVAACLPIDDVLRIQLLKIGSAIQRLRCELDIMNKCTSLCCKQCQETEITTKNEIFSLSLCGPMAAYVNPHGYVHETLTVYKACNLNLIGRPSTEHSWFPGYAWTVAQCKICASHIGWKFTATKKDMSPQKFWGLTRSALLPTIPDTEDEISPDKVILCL
Give the quantity in nM, number only.

| Compound | Readout Number |
| --- | --- |
| N#Cc1cccc(C(=O)Nc2ccc3c(c2)CN(C2CCC(=O)NC2=O)C3=O)c1 (stereo unspecified) | 15 |

Request the reported DC50 associated with O=C1CCC(N2Cc3cc(NC(=O)c4ccc(F)cc4)ccc3C2=O)C(=O)N1 (stereo unspecified) 10

* * *

Protocol: Apparent permeability across basolateral to apical side in MDCK-II cells at 10 micromol/L incubated for 1 hrs by UPLC/MS analysis
Type: ADME, cell-based, Canis lupus familiaris
Assay Conditions: dog, mdck-ii, 1 h, 10 µM, dose 10 µmol/L
Measured Endpoint: Papp (×10⁻⁶ cm/s)
Give the quantity in ×10⁻⁶ cm/s, number only.

Consider the following illustrative entries.
| Compound | Measured Endpoint | Unit Info | Readout Number |
| --- | --- | --- | --- |
| Cc1cccc(C(=O)Nc2ccc3c(c2)CN(C2CCC(=O)NC2=O)C3=O)c1 (configuration not stated) | Papp | ×10⁻⁶ cm/s | 2.6 |
| O=C1CCC(N2Cc3cc(Nc4noc5ccccc45)ccc3C2=O)C(=O)N1 (configuration not stated) | Papp | ×10⁻⁶ cm/s | 26.2 |
| COc1cccc(C(=O)Nc2ccc3c(c2)CN(C2CCC(=O)NC2=O)C3=O)c1 (configuration not stated) | Papp | ×10⁻⁶ cm/s | 2.2 |
| O=C1CCC(N2Cc3cc(Nc4noc5cc(F)ccc45)ccc3C2=O)C(=O)N1 (configuration not stated) | Papp | ×10⁻⁶ cm/s | 10.4 |
| O=C1CCC(N2Cc3cc(NC(=O)c4cccc(F)c4)ccc3C2=O)C(=O)N1 (configuration not stated) | Papp | ×10⁻⁶ cm/s | 1.8 |

Request the reported Papp associated with Cc1ccc(C(=O)Nc2ccc3c(c2)CN(C2CCC(=O)NC2=O)C3=O)cc1 (configuration not stated) 2.1

Check O=C1CCC(N2Cc3cc(NC(=O)c4ccc(F)cc4)ccc3C2=O)C(=O)N1 (configuration not stated) too. 0.5

* * *

Tgt: Cereblon/Casein kinase I alpha (Homo sapiens, UniProt P48729+Q96SW2)
Protocol: PROTAC activity at CRBN/HiBiT-tagged CK1alpha in HEK293 cells transfected with LgBiT expression vector assessed as induction of CK1alpha degradation by measuring degradation rate at 10 uM measured after 24 hrs by luminescence based GloMax Discover assay
Format: cell-based
Sequence (P48729 2-337 limits assumed): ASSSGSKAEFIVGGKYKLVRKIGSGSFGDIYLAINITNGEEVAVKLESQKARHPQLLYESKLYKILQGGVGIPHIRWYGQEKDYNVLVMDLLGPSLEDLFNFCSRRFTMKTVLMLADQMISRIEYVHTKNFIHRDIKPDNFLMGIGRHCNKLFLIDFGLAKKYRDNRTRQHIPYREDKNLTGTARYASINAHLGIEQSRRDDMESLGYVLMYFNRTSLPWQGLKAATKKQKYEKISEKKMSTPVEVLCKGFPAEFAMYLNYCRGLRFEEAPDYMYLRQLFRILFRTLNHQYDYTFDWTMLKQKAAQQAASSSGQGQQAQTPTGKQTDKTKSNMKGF
Sequence (Q96SW2 whole entry partner): as the sequence (Q96SW2 whole entry) above
Listed next: entries and their corresponding Activity.
Give the quantity in h⁻¹, number only.

Consider the following illustrative entries.
| Compound | Activity (h⁻¹) |
| --- | --- |
| Cn1nc(Nc2ccc3c(c2)CN(C2CCC(=O)NC2=O)C3=O)c2ccccc21 (stereo not given) | 1.9 |
| O=C1CCC(N2Cc3cc(NC(=O)c4ccc(F)cc4)ccc3C2=O)C(=O)N1 (stereo not given) | 1.2 |
| COc1cccc(C(=O)Nc2ccc3c(c2)CN(C2CCC(=O)NC2=O)C3=O)c1 (stereo not given) | 1.9 |
| O=C1CCC(N2Cc3cc(NC(=O)C4CCCCC4)ccc3C2=O)C(=O)N1 (stereo not given) | 0.86 |
| O=C1CCC(N2Cc3cc(NC(=O)c4cccc(C(F)(F)F)c4)ccc3C2=O)C(=O)N1 (stereo not given) | 1.65 |
| O=C1CCC(N2Cc3cc(CNC(=O)c4ccc(F)cc4)ccc3C2=O)C(=O)N1 (stereo not given) | 0.1 |
| O=C1CCC(N2Cc3cc(NC(=O)c4cccc(F)c4)ccc3C2=O)C(=O)N1 (stereo not given) | 1.3 |
| Cc1ccc(C(=O)Nc2ccc3c(c2)CN(C2CCC(=O)NC2=O)C3=O)cc1 (stereo not given) | 1.3 |

Request the reported Activity associated with N#Cc1cccc(C(=O)Nc2ccc3c(c2)CN(C2CCC(=O)NC2=O)C3=O)c1 (stereo not given) 1.7

Check O=C1CCC(N2Cc3cc(Nc4noc5ccccc45)ccc3C2=O)C(=O)N1 (stereo not given) too. 3.5

Cited source: ChEMBL document CHEMBL6071193
